target.entity: delF508-CFTR (Homo sapiens, UniProt P13569, DEL508-508)
Construct: functional activity of the CFTR channel (Chloride ion transport) in patient derived primary human bronchial epithelial cells; host or cells: patient-derived primary human bronchial epithelial cells (delF508-CFTR)
Sequence (P13569 with tags, fused parts or gaps DEL508-508): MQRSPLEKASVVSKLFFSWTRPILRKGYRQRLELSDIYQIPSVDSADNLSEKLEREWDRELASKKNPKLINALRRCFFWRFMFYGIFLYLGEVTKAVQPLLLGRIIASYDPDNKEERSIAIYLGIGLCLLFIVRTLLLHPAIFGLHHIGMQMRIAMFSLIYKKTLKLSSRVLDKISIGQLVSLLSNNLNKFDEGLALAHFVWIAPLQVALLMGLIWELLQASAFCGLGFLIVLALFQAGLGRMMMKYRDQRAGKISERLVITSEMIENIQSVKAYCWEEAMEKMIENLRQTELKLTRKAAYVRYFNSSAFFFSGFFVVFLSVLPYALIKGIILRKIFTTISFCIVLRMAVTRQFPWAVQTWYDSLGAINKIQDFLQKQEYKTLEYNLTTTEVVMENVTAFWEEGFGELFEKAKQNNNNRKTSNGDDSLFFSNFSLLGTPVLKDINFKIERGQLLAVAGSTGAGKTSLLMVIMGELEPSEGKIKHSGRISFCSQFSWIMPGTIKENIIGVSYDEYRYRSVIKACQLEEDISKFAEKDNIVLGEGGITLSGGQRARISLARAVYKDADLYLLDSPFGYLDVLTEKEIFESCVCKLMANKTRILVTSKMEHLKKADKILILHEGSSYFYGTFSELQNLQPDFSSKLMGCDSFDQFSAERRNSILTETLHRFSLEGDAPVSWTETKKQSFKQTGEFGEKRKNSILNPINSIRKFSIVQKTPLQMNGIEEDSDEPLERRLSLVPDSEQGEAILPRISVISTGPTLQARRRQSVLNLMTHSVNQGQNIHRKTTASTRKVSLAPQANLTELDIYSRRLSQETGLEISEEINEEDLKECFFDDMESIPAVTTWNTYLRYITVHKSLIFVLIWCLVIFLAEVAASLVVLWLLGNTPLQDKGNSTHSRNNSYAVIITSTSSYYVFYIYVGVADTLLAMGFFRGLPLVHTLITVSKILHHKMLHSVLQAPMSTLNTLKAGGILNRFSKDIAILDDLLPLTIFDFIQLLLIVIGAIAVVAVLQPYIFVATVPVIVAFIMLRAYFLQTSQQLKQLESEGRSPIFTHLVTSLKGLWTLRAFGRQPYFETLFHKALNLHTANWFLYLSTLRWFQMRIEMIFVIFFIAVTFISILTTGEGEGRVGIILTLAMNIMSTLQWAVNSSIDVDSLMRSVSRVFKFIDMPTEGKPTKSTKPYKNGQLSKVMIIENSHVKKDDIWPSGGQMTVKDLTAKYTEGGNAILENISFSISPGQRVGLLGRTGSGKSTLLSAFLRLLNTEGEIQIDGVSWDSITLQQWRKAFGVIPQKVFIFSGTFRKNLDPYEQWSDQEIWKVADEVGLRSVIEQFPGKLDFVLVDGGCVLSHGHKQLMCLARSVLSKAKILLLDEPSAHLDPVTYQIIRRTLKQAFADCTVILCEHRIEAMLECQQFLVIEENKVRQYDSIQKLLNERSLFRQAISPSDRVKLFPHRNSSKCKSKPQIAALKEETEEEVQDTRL
assay.overview: Measurement of delF508-CFTR functional activity in primary human bronchial epithelial cells (HBECs) using Multi-Transepithelial Clamp Circuit (MTECC-24) assay
Type: cell-based
run.conditions: primary CF HBECs; test compound added 24h before assay plus potentiator; relative to reference combination (2 μM corrector + 0.5 μM potentiator)
Where a name gives a salt, the structure may show the parent alone.
Below is a list of entries, each paired with its recorded MTECC24 CFHBEC- Amax % value.

# compound, MTECC24 CFHBEC- Amax % / %
data = [
    ("Cc1ccc(F)cc1-c1nc(NS(=O)(=O)c2cccc(N3CCN[C@@H](CO)C3)n2)ccc1C(F)(F)F [Example 174, Hydrochloride]", 57.1),
    ("Cc1ccccc1-c1nc(NS(=O)(=O)c2cccc(N3CC[C@@H](N)[C@@H](F)C3)n2)ccc1C(F)(F)F [Example 111, Hydrochloride]", 59.5),
    ("O=S(=O)(Nc1ccc(C(F)(F)F)c(-c2cccc(F)c2Cl)n1)c1cccc(N2CC(O)C2)n1", 60.6),
    ("Cc1ccccc1-c1nc(NS(=O)(=O)c2cccc(N3C4CCCC3CC(C(=O)O)C4)n2)ccc1C(F)(F)F (stereo not shown)", 90.4),
]
